Target: Cytochrome P450 3A4 (Homo sapiens)
Assay: Cytochrome panel assay with activity outcomes
Settings: recombinant CYP, pro-luciferin dealkylation, luminescence, p450-cyp3a4; series mostly up to 57.1 µM
The campaign covered roughly 16,000 compounds. About 5,100 (32%) were called active. About 25% were inconclusive and are not listed. The call rests on the fitted dose curve; in most records, active means well fitted curve in the direction sought with a large enough effect; inconclusive means small, poorly fitted or top-dose-only effect, or effect the other way; inactive means no such curve, though single readings can be large or run the other way. Some of the results follow.
Pick from True = active, False = inactive when you respond.

// query What did the test return for `N#Cc1c(-c2ccccc2)nc2n(c1=O)CCS2` ?
// result False

// query Follow-up item: `Cc1ccc(S(=O)(=O)Nc2nc(C)c(NC(=O)Nc3ccc(Cl)cc3Cl)s2)cc1`
// result True

// query Please give the result for NC1(C(=O)O)CC(C(=O)O)C1 (stereo not given) too.
// result False

// query Entry `COc1ccc(Cc2nc3ccc(S(=O)(=O)N4CCOCC4)cc3[nH]2)cc1OC` please
// result True

// query For `Cn1c(C(=O)N2COCC2(C)C)cc2c(=O)n3ccccc3nc21` then?
// result False

// query Follow-up item: `CC(=O)NN1C(=O)c2ccc(Oc3cccc([N+](=O)[O-])c3)cc2C1=O`
// result False

// query Another compound to look at: `CCOC(=O)c1c(NC(=O)c2c(C)noc2C)sc2c1CCCCC2`
// result False

// query Could you do the same for CCOc1cccc(/C(O)=C2/C(=O)C(=O)N(Cc3cccnc3)C2c2ccco2)c1 (stereo not given) , please?
// result True

// query Try the compound N#Cc1cccc(C(c2nnnn2C2CCCC2)N2CCCCCC2)c1 (stereo not given)
// result True

// query Queued: `CC(C)c1cccc2nc3c(c([Si](C)(C)C(C)(C)C)c12)Cn1c-3cccc1=O`
// result True

// query Another compound to look at: COc1ccc(C2C(C(=O)c3ccco3)=C(O)C(=O)N2Cc2cccnc2)cc1OC (stereo not given)
// result False

// query // query: Cc1cc(N2C(=O)C(O)=C(C(=O)c3ccco3)C2c2ccc(O)cc2)no1 (stereo not given)
// result False

// query What do we get for `CCN(CC)S(=O)(=O)c1ccc(C(=O)Nc2ncn(Cc3ccccc3)n2)cc1` ?
// result False

// query Try this compound too: `O=C(C1CCN(S(=O)(=O)c2cccc3nsnc23)CC1)N1CCCc2ccccc21`
// result True

// query Input `CCSC(=N)N`
// result False

// query Same question, `N[C@H](Cn1ccc(=O)n(Cc2ccccc2C(=O)O)c1=O)C(=O)O` this time
// result False

// query Entry `CC(C)c1cccc2nc3c(c([Si](C)(C)C)c12)Cn1c-3cccc1=O` please
// result True

// query Moving on to the next compound: CC(C)Oc1ccc(/C(O)=C2/C(=O)C(=O)N(Cc3cccnc3)C2c2ccco2)cc1 (stereo not given)
// result True

// query Repeat with `CCCOC(=O)c1ccc(NC(=O)c2cn(CC)c3nc(C)ccc3c2=O)cc1`
// result False

// query Now the compound `CCCC(=O)Nc1c(C)n[nH]c1C`
// result False

// query Same lookup for `O=C(CSc1ccc(Cl)cc1)Nc1ccc(N2CCN(c3ccccc3)CC2)c(F)c1` , please.
// result False

// query Then what about the compound `Cc1cc(NC(=O)NC(=O)c2ccc(F)cc2F)n[nH]1` ?
// result False

// query One more compound: COc1ccccc1C1/C(=C(/O)c2ccccc2)C(=O)C(=O)N1CCO (stereo not given)
// result False

// query Next: `Cc1ccccc1-n1nc2c(c1NC(=O)c1ccc(S(=O)(=O)N(C)C)cc1)CSC2`
// result True

// query // query: `Cc1onc(-c2c(F)cccc2Cl)c1C(=O)N[C@H]1C(=O)N2[C@H]1SC(C)(C)[C@H]2C(=O)O`
// result False

// query Further, for O=S(Cc1ccc(Br)cc1)Cc1nnc(SCc2ccc(Cl)cc2)n1-c1ccccc1 (stereo not given) ?
// result True

// query Now the compound `O=c1[nH][nH]c(C(F)(F)F)c1C=Nc1ccccc1Cl`
// result False

// query Queued: `Cc1oc(=O)c(NC(=O)c2ccccc2)cc1C(=O)c1ccccc1`
// result True

// query Follow-up item: `Cc1ccc(NC(=O)CCN2C(=O)c3ccncc3C2=O)cc1`
// result True

// query One more compound: `Cc1ccccc1-n1nc2c(c1NC(=O)c1c(-c3ccccc3Cl)noc1C)CSC2`
// result True

// query // next record `CCOC(=O)c1c(C)c(C(=O)N2CCN(C(=O)c3ccco3)CC2)c(C)n1C`
// result False

// query Next: `O=C(C1CCN(S(=O)(=O)c2cccc3nsnc23)CC1)N1CCN(c2ccccc2F)CC1`
// result False

// query Try the compound `Cc1cc(NC(=O)c2ccc(S(=O)(=O)N(C)C)cc2)n(-c2ccccn2)n1`
// result False

// query Try the compound `CCOC(=O)c1cc(NC(=O)c2ccc(OC)cc2)c(=O)oc1-c1ccccc1`
// result False

// query Query `CCCCC(=O)Nc1sc2c(c1C(=O)OCC)CCC(C=O)=C2Cl` next
// result True

// query Now give it for `COc1ccc(OCCSc2ncn[nH]2)cc1` too.
// result True

// query How about `Cc1ccc(NC(=O)C(=O)NCc2ccc(/C=C(/C#N)C(=O)NCc3cccnc3)o2)cc1` ?
// result True

// query Try N#Cc1ccc(C(c2nnnn2C2CCCC2)N2CCC(Cc3ccccc3)CC2)cc1 (stereo not given) next.
// result True

// query Request: `NS(=O)(=O)c1cccc2c1c([N+](=O)[O-])cc1[nH]c(=O)c(=O)[nH]c12`
// result False

// query Please answer likewise for COc1ccc(/C(O)=C2/C(=O)C(=O)N(Cc3cccnc3)C2c2ccco2)cc1OC (stereo not given)
// result True
